# PROTOCOL: Kinetic solubility of the compound
# Type: physicochemical
# RUN_CONDITIONS: read-out: Kinetic_solubility
PARAMETER_MEASURED: solubility kinetic (µM)
Kindly answer with a numeric value in µM, unit omitted.

Qu. State the recorded solubility kinetic for this entry: Cc1cc(-c2cnn(C)c2)cc(C2CCN(C(=O)c3cc(C(C)C)n[nH]3)C2)n1 (racemic)
Ans. 56

Qu. // same read-out, input: CC(C)c1cc(C(=O)N2CC[C@@H](NC(=O)C3CC3)C2)[nH]n1
Ans. 112

---

# PROTOCOL: Hepatic clearance in mouse hepatocytes
# Type: ADME, cell-based, Hepatocyte
For each entry below, report its CLhep predicted value.
Give a bare numeral; the unit mL/min/kg is implied.

Qu. Entry CC(C)c1cc(C(=O)N2CC[C@@H](NC(=O)C3CC3)C2)[nH]n1 has what CLhep predicted?
Ans. 0.6

Qu. Please give the result for Cc1cc(-c2cnn(C)c2)cc(C2CCN(C(=O)c3cc(C(C)C)n[nH]3)C2)n1 (stereo in doubt; 9) too.
Ans. 66
